assay: Plasma concentration in male mouse after 30 min intravenous administration; assay type: ADME
MEASURED ENDPOINT: concentration at 0.5 h (nM)
State just the number; it will be interpreted in nM.

# input Given CN1C(=O)NC(Cc2c[nH]c3c(Cl)cccc23)C1=O (stereo unspecified) , state its recorded concentration at 0.5 h.
# output 310

###

assay: Area under curve concentration in male mouse after 8 hours of intravenous administration; assay type: ADME; parameters: time < 8 hr, route intravenous; details: in vivo
MEASURED ENDPOINT: AUC at 8 h (ng·h/mL)
State just the number; it will be interpreted in ng·h/mL.

# input Given CN1C(=O)NC(Cc2c[nH]c3c(Cl)cccc23)C1=O (stereo unspecified) , state its recorded AUC at 8 h.
# output 274
